Listed binders paired with reported Max % Inhibition at 200 nM, HEK-BlueIL1β NFκB Reporter Assay
subject of test: T1, IL1RAP on HEK-Blue IL1β / HEK-Blue IL33 reporter cells (UniProt Q9NPH3 21-570, limits assumed)
T1 sequence (looked up): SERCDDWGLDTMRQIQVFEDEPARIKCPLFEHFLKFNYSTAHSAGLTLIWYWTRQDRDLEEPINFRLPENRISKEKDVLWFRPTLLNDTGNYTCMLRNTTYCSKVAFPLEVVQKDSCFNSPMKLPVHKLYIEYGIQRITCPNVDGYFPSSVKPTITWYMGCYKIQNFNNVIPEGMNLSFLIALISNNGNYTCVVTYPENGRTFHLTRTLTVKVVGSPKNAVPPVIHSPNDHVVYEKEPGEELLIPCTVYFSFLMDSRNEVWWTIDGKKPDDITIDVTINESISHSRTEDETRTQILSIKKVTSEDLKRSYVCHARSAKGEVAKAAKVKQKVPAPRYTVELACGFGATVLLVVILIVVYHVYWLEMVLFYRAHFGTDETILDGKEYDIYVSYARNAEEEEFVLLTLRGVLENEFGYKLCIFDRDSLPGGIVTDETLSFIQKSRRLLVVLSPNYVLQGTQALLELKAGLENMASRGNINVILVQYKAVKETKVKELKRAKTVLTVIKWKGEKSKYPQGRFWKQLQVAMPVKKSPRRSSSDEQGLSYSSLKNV
experimental protocol: cell-based or functional assay
Could you give me the number in %? Just the number is fine.

STLX2043 (antibody, V domains shown, Purified from hybridoma of immunized Alivamab mice; intact IgG; captured on anti-mouse IgG Fc sensors in Octet; kappa light chain; also called 74804_43F04A) VH: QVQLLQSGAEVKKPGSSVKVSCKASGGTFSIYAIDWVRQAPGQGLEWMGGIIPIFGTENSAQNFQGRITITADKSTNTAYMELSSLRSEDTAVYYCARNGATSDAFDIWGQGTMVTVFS VL: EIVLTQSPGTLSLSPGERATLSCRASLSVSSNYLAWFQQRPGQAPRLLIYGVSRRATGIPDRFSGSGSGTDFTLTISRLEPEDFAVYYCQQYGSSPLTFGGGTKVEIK; 99
STLX2051 (antibody, V domains shown, Purified from hybridoma of immunized Alivamab mice; intact IgG; captured on anti-mouse IgG Fc sensors in Octet; kappa light chain; also called 74804_51C10A) VH: QVQLLQSGAEVKKPGSSVKVSCKASGGTFNIYAIDWVRQAPGQGLEWMGGIIPIFGTANSAQKFQGRVTITADKSTNTAYMELSSLRSEDTAVYYCARNGATSDAFDIWGQGTMVTVSS VL: EIVLTQSPGTLSLSPGERATLSCRASQSVSSNYLAWFQQRPGQAPRLLIYGVSRRATGIPDRFSGSGSGTDFTLTISRLEPEDFAVYYCQQYGSSPLTFGGGTKVEIK; 99
STLX2025 (antibody, V domains shown, Purified from hybridoma of immunized Alivamab mice; intact IgG; captured on anti-mouse IgG Fc sensors in Octet; kappa light chain; also called 74804_25H09A) VH: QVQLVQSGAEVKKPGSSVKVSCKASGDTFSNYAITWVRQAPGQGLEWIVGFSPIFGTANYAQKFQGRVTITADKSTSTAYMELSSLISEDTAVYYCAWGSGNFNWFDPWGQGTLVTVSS VL: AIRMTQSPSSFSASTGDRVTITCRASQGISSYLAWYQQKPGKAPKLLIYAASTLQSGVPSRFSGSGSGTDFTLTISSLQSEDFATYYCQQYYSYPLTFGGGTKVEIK; 100
STLX2005 (antibody, V domains shown, Purified from hybridoma of immunized Alivamab mice; intact IgG; captured on anti-mouse IgG Fc sensors in Octet; kappa light chain; also called 74804_05B24A) VH: EVQLVDSGGGLVKPGGSLRLSCAATGFTFSNVWMSWVRQGSGKGLEWVGRIKSKTDGGTIDYAAPVKGRFTISRDDPKNTLYLQMNSLKTEDTAVYYCTTGELLGFDYWGQGTLVTVSS VL: DIVMTQSPLSLPVTPGEPASISCRSGQSLLHNNGFNCLAWYLQKPGQSPQLLIYLGSNRASGVPDRFSGSGSGTDFTLKISRVEAEDVGVFYCMQTLQTPITFGQGTRLEIK; 99

So for STLX2027 (antibody, V domains shown, Purified from hybridoma of immunized Alivamab mice; intact IgG; captured on anti-mouse IgG Fc sensors in Octet; lambda light chain; also called 74804_27I24A) VH: EVQLVESGGGLVKPGGSLRLSCAASGFTFITYSMNWVRQAPGKGLEWVSSISSISSYIYYADSVKGRFTISRDNAKNSLYLQMDSLRAEDSAVYYCAREGIVGPTGYFDSWGQGTLVTVSS VL: QSVLTQPPSVSAAPGQKVTISCSGSSSNIGNHYVSWYQQLPGTAPKLLIYDNNKRPSGIPDRFSGSKSGTSATLGITGLQTGDEADYYCGTWDSRLSAYWVFGGGTKLTVL , the logged Max % Inhibition at 200 nM, HEK-BlueIL1β NFκB Reporter Assay turned out to be 100

Data credit: patent US20240392013A1
